// values below are reported IC90
Tested on: Acinetobacter baumannii ATCC 17978
Experiment: Antimicrobial susceptibility testing: 90% growth inhibitory concentration (IC90) determination
Type: cell-based
Conditions: Acinetobacter baumannii, ATCC17978, 16 h, 90% growth inhibitory concentration; Acinetobacter baumannii ATCC17978; Iso-Sensitest broth, OD 600 nm over 16h; read-out: ATCC17978 IC90
Description: Antimicrobial Susceptibility Testing: 90% Growth Inhibitory Concentration (IC90) Determination The in vitro antimicrobial activity of the compounds was determined according to the following procedure: The assay used a 10-points Iso-Sensitest broth medium to measure quantitatively the in vitro activity of the compounds against Acinetobacter baumannii ATCC 17978 and Acinetobacter baumannii ATCC 17961. […]

[
  {
    "ITEM_SMILES": "Cc1cc(Nc2nccn3c(-c4ccc(OC(F)F)cc4)cnc23)ccc1C(=O)N(CCO)CCO",
    "IC90 (nM)": 5000
  },
  {
    "ITEM_SMILES": "CCc1cc(Nc2nccn3c(-c4ccc(OC)c(F)c4F)cnc23)ccc1C(=O)NCCCCC(=O)N1CCN[C@H](CO)C1",
    "IC90 (nM)": 80
  },
  {
    "ITEM_SMILES": "CCc1cc(Nc2nccn3c(-c4ccc(OC(F)F)c(F)c4F)cnc23)ccc1C(=O)NCCNC(=O)CN(C)C",
    "IC90 (nM)": 140
  },
  {
    "ITEM_SMILES": "CCc1cc(Nc2nccn3c(-c4ccc(Oc5nccc(OC)n5)c(F)c4F)cnc23)ccc1C(=O)NCCN",
    "IC90 (nM)": 560
  }
]

---

Tested on: Acinetobacter baumannii ATCC 17978
Assay: Antimicrobial susceptibility testing: 90% growth inhibitory concentration (IC90) determination
Format: cell-based
Details: Acinetobacter baumannii, ATCC17978, 16 h, 90% growth inhibitory concentration; Acinetobacter baumannii ATCC17978; Iso-Sensitest broth, OD 600 nm over 16h; read-out: ATCC17978 IC90
Description: Antimicrobial Susceptibility Testing: 90% Growth Inhibitory Concentration (IC90) Determination The in vitro antimicrobial activity of the compounds was determined according to the following procedure: The assay used a 10-points Iso-Sensitest broth medium to measure quantitatively the in vitro activity of the compounds against Acinetobacter baumannii ATCC 17978 and Acinetobacter baumannii ATCC 17961. […]
MEASURED_PROPERTY: IC90 (nM)

[
  {
    "MOLECULE": "COc1ccc(-c2cnc3c(Nc4ccc(C(=O)N(C)CC5OCC(N)CO5)c(C)c4)nccn23)cc1 (stereo not shown)",
    "MEASURED_PROPERTY": "IC90",
    "MEASURED_NUMBER": 530
  },
  {
    "MOLECULE": "COc1ccc(-c2cnc3c(Nc4ccc5c(c4)CCN(C)C5=O)nccn23)cc1F",
    "MEASURED_PROPERTY": "IC90",
    "MEASURED_NUMBER": 240
  },
  {
    "MOLECULE": "COc1ccc(-c2cnc3c(Nc4ccc(C(=O)NCCCCCN5CCNCC5)c(C)c4)nccn23)cc1F",
    "MEASURED_PROPERTY": "IC90",
    "MEASURED_NUMBER": 120
  },
  {
    "MOLECULE": "CCc1cc(Nc2nccn3c(-c4ccc(Oc5ccccn5)c(F)c4F)cnc23)ccc1C(=O)NC",
    "MEASURED_PROPERTY": "IC90",
    "MEASURED_NUMBER": 210
  },
  {
    "MOLECULE": "COc1ccc(-c2cnc3c(Nc4ccc(C(=O)NCCCN5CCNC(=O)C5)c(C)c4)nccn23)c(F)c1F",
    "MEASURED_PROPERTY": "IC90",
    "MEASURED_NUMBER": 120
  },
  {
    "MOLECULE": "COc1ccc(-c2cnc3c(Nc4ccc(C(=O)NCCNC(=O)CC[C@@H]5NC5=O)c(C)c4)nccn23)c(F)c1F",
    "MEASURED_PROPERTY": "IC90",
    "MEASURED_NUMBER": 520
  },
  {
    "MOLECULE": "COc1ccc(-c2cnc3c(Nc4ccc(C(=O)N[C@H](CO)Cc5cnc[nH]5)c(C)c4)nccn23)cc1F",
    "MEASURED_PROPERTY": "IC90",
    "MEASURED_NUMBER": 820
  }
]

---

Tested on: Acinetobacter baumannii ATCC 17978
Test: Antimicrobial susceptibility testing: 90% growth inhibitory concentration (IC90) determination
Format: cell-based
Details: Acinetobacter baumannii, ATCC17978, 16 h, 90% growth inhibitory concentration; Acinetobacter baumannii ATCC17978; Iso-Sensitest broth, OD 600 nm over 16h; read-out: ATCC17978 IC90
Procedure: Antimicrobial Susceptibility Testing: 90% Growth Inhibitory Concentration (IC90) Determination The in vitro antimicrobial activity of the compounds was determined according to the following procedure: The assay used a 10-points Iso-Sensitest broth medium to measure quantitatively the in vitro activity of the compounds against Acinetobacter baumannii ATCC 17978 and Acinetobacter baumannii ATCC 17961. […]
Structures can show the parent of a compound that is named as a salt.
Overview of recorded IC90 for various molecules

[
  {
    "MOLECULE": "CN(CCN1CCNCC1)C(=O)c1ccc(Nc2nccn3c(-c4ccc(OCC#N)c(F)c4F)cnc23)cc1Cl [Example 74]",
    "OUTPUT_UNIT": "nM",
    "IC90": 60
  },
  {
    "MOLECULE": "CCc1cc(Nc2nccn3c(-c4ccc(OC)c(F)c4F)cnc23)ccc1C(=O)NCC(O)CNC(=O)CCCN (stereo not shown) [Example 410, hydrochloride]",
    "OUTPUT_UNIT": "nM",
    "IC90": 210
  },
  {
    "MOLECULE": "Cn1ccc(CNC(=O)c2ccc(Nc3nccn4c(-c5ccc(OCC#N)c(F)c5F)cnc34)cc2Cl)cc1=O [Example 86]",
    "OUTPUT_UNIT": "nM",
    "IC90": 140
  },
  {
    "MOLECULE": "CCc1cc(Nc2nccn3c(-c4ccc(Oc5ccccn5)c(F)c4F)cnc23)ccc1C(=O)NCCNC(=O)[C@@H](N)CCNC(=N)N [Example 420]",
    "OUTPUT_UNIT": "nM",
    "IC90": 720
  },
  {
    "MOLECULE": "CCc1cc(Nc2nccn3c(-c4ccc(OC)c(F)c4F)cnc23)ccc1C(=O)N[C@@H](C)CNC(=O)[C@@H](N)CCCCN [Example 453]",
    "OUTPUT_UNIT": "nM",
    "IC90": 320
  },
  {
    "MOLECULE": "COc1ccc(-c2cnc3c(Nc4ccc(C(=O)N(C)C)cc4)nccn23)c(F)c1F [Example 107]",
    "OUTPUT_UNIT": "nM",
    "IC90": 120
  },
  {
    "MOLECULE": "CNC(=O)c1ccc(Nc2nccn3c(-c4ccc(OC)c(Cl)c4)cnc23)cc1C [Example 27]",
    "OUTPUT_UNIT": "nM",
    "IC90": 190
  }
]

---

tested on: Acinetobacter baumannii ATCC 17978; test: Antimicrobial susceptibility testing: 90% growth inhibitory concentration (IC90) determination; type: cell-based; conditions: Acinetobacter baumannii, ATCC17978, 16 h, 90% growth inhibitory concentration; Acinetobacter baumannii ATCC17978; Iso-Sensitest broth, OD 600 nm over 16h; read-out: ATCC17978 IC90
Where a name gives a salt, the structure may show the parent alone.

[
  {
    "COMPOUND": "COc1ccc(-c2cnc3c(Nc4ccc(C(=O)N(C)CCn5ccnc5)c(C)c4)nccn23)cc1F",
    "TESTED_TARGET": "Acinetobacter baumannii ATCC 17978",
    "OUTPUT_UNIT": "nM",
    "IC90": 820
  },
  {
    "COMPOUND": "CCc1cc(Nc2nccn3c(-c4ccc(OCC#N)c(F)c4F)cnc23)ccc1C(=O)NCCNC(=O)[C@@H](N)CCN [Example 144, formate]",
    "TESTED_TARGET": "Acinetobacter baumannii ATCC 17978",
    "OUTPUT_UNIT": "nM",
    "IC90": 90
  },
  {
    "COMPOUND": "CCc1cc(Nc2nccn3c(-c4ccc(Oc5ccc(OCCCN)cn5)c(F)c4F)cnc23)ccc1C(=O)N(C)C",
    "TESTED_TARGET": "Acinetobacter baumannii ATCC 17978",
    "OUTPUT_UNIT": "nM",
    "IC90": 860
  },
  {
    "COMPOUND": "COc1ccc(-c2cnc3c(Nc4ccc(C(=O)NCCC5CCN(C)CC5)c(C)c4)nccn23)cc1",
    "TESTED_TARGET": "Acinetobacter baumannii ATCC 17978",
    "OUTPUT_UNIT": "nM",
    "IC90": 220
  },
  {
    "COMPOUND": "CCc1cc(Nc2nccn3c(-c4ccc(OC)c(F)c4F)cnc23)ccc1C(=O)NCC(=O)NCCN",
    "TESTED_TARGET": "Acinetobacter baumannii ATCC 17978",
    "OUTPUT_UNIT": "nM",
    "IC90": 230
  },
  {
    "COMPOUND": "CCc1cc(Nc2nccn3c(-c4ccc(OC)c(F)c4F)cnc23)ccc1C(=O)NCCCCCCN [Example 494, hydrochloride]",
    "TESTED_TARGET": "Acinetobacter baumannii ATCC 17978",
    "OUTPUT_UNIT": "nM",
    "IC90": 37
  },
  {
    "COMPOUND": "CCc1cc(Nc2nccn3c(-c4ccc(Oc5ccncn5)c(F)c4F)cnc23)ccc1C(=O)N[C@@H](C)CNC(=O)[C@H](N)CCNC(=N)N",
    "TESTED_TARGET": "Acinetobacter baumannii ATCC 17978",
    "OUTPUT_UNIT": "nM",
    "IC90": 660
  },
  {
    "COMPOUND": "COc1ccc(-c2cnc3c(Nc4ccc(C(=O)N(C)Cc5ccncc5)c(C)c4)nccn23)cc1F",
    "TESTED_TARGET": "Acinetobacter baumannii ATCC 17978",
    "OUTPUT_UNIT": "nM",
    "IC90": 140
  },
  {
    "COMPOUND": "C=CCNC(=O)c1ccc(Nc2nccn3c(-c4ccc(OC)c(F)c4F)cnc23)cc1CC",
    "TESTED_TARGET": "Acinetobacter baumannii ATCC 17978",
    "OUTPUT_UNIT": "nM",
    "IC90": 140
  },
  {
    "COMPOUND": "N#CCOc1ccc(-c2cnc3c(Nc4ccc(C(=O)NCc5cc[nH]c(=O)c5)c(Cl)c4)nccn23)c(F)c1F",
    "TESTED_TARGET": "Acinetobacter baumannii ATCC 17978",
    "OUTPUT_UNIT": "nM",
    "IC90": 70
  },
  {
    "COMPOUND": "CCN(C(=O)NCCCN(C)C)C(=O)c1ccc(Nc2nccn3c(-c4ccc(OCC#N)c(F)c4F)cnc23)cc1Cl",
    "TESTED_TARGET": "Acinetobacter baumannii ATCC 17978",
    "OUTPUT_UNIT": "nM",
    "IC90": 450
  },
  {
    "COMPOUND": "COc1ccc(-c2cnc3c(Nc4ccc(C(=O)NCC5CCNCC5)c(Cl)c4)nccn23)c(F)c1F",
    "TESTED_TARGET": "Acinetobacter baumannii ATCC 17978",
    "OUTPUT_UNIT": "nM",
    "IC90": 170
  },
  {
    "COMPOUND": "CCc1cc(Nc2nccn3c(-c4ccc(OC)c(F)c4F)cnc23)ccc1C(=O)NCC1(F)CNC1 [Example 526, hydrochloride]",
    "TESTED_TARGET": "Acinetobacter baumannii ATCC 17978",
    "OUTPUT_UNIT": "nM",
    "IC90": 210
  },
  {
    "COMPOUND": "Cc1cc(Nc2nccn3c(-c4ccc(OC(F)F)cc4)cnc23)ccc1C(=O)NCCSc1nnnn1C",
    "TESTED_TARGET": "Acinetobacter baumannii ATCC 17978",
    "OUTPUT_UNIT": "nM",
    "IC90": 520
  }
]
